Where do the numbers come from? From patent US5554637A.

assay: metabolism of leflunomide under the conditions of the cell experiment (HPLC); assay type: in vitro ADME, human; details: human, mononuclear cells; mononuclear cell fraction, incubation conditions of Example 1, HPLC
measured_property: half-life

Exam item: # input compound: Cc1oncc1C(=O)Nc1ccc(C(F)(F)F)cc1 [Leflunomide] ; wanted: its half-life
Marked response: ~600 min
